Hello, the source for this data is patent US10294212B2, in case you need it.

Measured IC50, listed per entry for reference.
target: Human indoleamine 2,3-dioxygenase1 (hIDO1) (Homo sapiens (Human))

Solved entries:
{"COMPOUND": "CCc1cc(-c2nccc3c(Nc4ccc(F)c(Cl)c4)c(N)oc23)ccn1 [Compound 262]", "TARGET_OR_TEST_SYSTEM": "Human indoleamine 2,3-dioxygenase1 (hIDO1) (Homo sapiens (Human))", "OBSERVED": "< 200 nM"}
{"COMPOUND": "Nc1sc2ccccc2c1Nc1ccc(Br)c(C(F)(F)F)c1 [Compound 126]", "TARGET_OR_TEST_SYSTEM": "Human indoleamine 2,3-dioxygenase1 (hIDO1) (Homo sapiens (Human))", "OBSERVED": "200 to 1000 nM"}
{"COMPOUND": "CCOC(=O)Nc1oc2c(-c3cc(C)nc(C)c3)nccc2c1N(C(=O)OCC)c1ccc(F)c(Cl)c1 [Compound 165]", "TARGET_OR_TEST_SYSTEM": "Human indoleamine 2,3-dioxygenase1 (hIDO1) (Homo sapiens (Human))", "OBSERVED": "> 1000 nM"}

Entry under review: CCc1nccc2c(Nc3ccc(F)c(Cl)c3)c(N)oc12 [Compound 73] . Reported IC50?
< 200 nM

Entry under review: C#Cc1cc(Nc2c(N)oc3c(-c4ccccc4)nccc23)ccc1F [Compound 110] . Reported IC50?
< 200 nM

Entry under review: Nc1oc2cnccc2c1Nc1ccc(F)c(C(F)(F)F)c1 [Compound 60] . Reported IC50?
< 200 nM

Entry under review: Cc1cc(-c2cccc3c(Nc4ccc(F)c(Cl)c4)c(N)sc23)ccn1 [Compound 240] . Reported IC50?
< 200 nM

Entry under review: N#Cc1cccc(Nc2c(N)oc3cnccc23)c1 [Compound 99] . Reported IC50?
> 1000 nM

Entry under review: Cc1cccc(Nc2c(N)oc3cc(C#N)ccc23)c1 [Compound 114] . Reported IC50?
200 to 1000 nM

* * *

Measured pIC50, listed per entry for reference.
target: Human TDO (hTDO)-transfected CHO-K1 cells (Homo sapiens (Human), UniProt P48775); test: CHO-K1 cell based TDO assay; details: hTDO cellular assay
Sequence (P48775 whole entry): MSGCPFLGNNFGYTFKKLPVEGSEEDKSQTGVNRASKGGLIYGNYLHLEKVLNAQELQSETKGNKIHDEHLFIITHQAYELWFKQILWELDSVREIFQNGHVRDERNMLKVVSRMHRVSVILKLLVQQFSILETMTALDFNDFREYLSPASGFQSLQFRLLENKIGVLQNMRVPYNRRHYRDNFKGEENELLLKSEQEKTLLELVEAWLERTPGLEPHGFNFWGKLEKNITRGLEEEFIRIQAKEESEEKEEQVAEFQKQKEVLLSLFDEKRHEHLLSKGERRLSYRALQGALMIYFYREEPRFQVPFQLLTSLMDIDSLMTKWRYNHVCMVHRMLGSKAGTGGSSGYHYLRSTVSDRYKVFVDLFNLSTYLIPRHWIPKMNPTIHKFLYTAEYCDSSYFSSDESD
pIC50: −log10 of the molar value.

Solved entries:
{"SMILES_ENTRY": "Cc1cc(-c2nccc3c(Nc4ccc(F)cc4F)c(N)oc23)ccn1", "READOUT_KIND": "pIC50", "OBSERVED": "> 6.30"}
{"SMILES_ENTRY": "Cc1cc(-c2nccc3c(Nc4ccccc4)c(N)oc23)ccn1", "READOUT_KIND": "pIC50", "OBSERVED": "> 6.30"}
{"SMILES_ENTRY": "CCOC(=O)Nc1oc2c(Br)nccc2c1N(C(=O)OCC)c1ccc(F)c(Cl)c1", "READOUT_KIND": "pIC50", "OBSERVED": "< 5.70"}
{"SMILES_ENTRY": "Nc1sc2ccccc2c1Nc1cccc(F)c1", "READOUT_KIND": "pIC50", "OBSERVED": "> 6.30"}
{"SMILES_ENTRY": "CC(C)c1nccc2c(Nc3ccc(F)c(Cl)c3)c(N)oc12", "READOUT_KIND": "pIC50", "OBSERVED": "5.70 to 6.30"}

Entry under review: Cc1cc(Nc2c(N)oc3cnccc23)ccc1F . Reported pIC50?
5.70 to 6.30

Entry under review: Nc1oc2cnccc2c1Nc1cccc(C(F)F)c1 . Reported pIC50?
5.70 to 6.30

* * *

target: Human indoleamine 2,3-dioxygenase-2 (hIDO2) (Homo sapiens (Human), UniProt Q6ZQW0); assay: In-vitro IDO2 enzyme assay; format: biochemical; details: IDO2 enzyme assay; read-out: IDO2 IC50
Sequence (Q6ZQW0 whole entry): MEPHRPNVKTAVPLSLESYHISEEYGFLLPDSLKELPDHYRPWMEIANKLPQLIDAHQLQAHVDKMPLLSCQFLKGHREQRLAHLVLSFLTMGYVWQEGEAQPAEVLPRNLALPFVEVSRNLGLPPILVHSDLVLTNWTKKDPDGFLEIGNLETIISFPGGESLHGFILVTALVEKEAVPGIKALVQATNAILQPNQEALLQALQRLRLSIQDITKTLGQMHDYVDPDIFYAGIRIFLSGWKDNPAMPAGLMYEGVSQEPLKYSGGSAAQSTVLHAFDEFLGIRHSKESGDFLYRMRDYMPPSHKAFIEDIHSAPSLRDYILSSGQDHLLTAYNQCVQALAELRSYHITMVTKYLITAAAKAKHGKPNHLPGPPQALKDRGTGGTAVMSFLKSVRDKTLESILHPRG
Measured IC50, listed per entry for reference.

{"SMILES_ENTRY": "Nc1oc2cnccc2c1Nc1ccc(F)c(Cl)c1", "OBSERVED": "< 1000 nM"}

Read the next record carefully.
Entry under review: Nc1oc2c(-c3ccncc3)nccc2c1Nc1ccc(F)c(F)c1 . Reported IC50?
< 1000 nM

* * *

molecular target: Human TDO (hTDO)-transfected CHO-K1 cells (Homo sapiens (Human), UniProt P48775); assay: CHO-K1 cell based TDO assay; conditions: hTDO cellular assay
pIC50: −log10 of the molar value.
Measured pIC50, listed per entry for reference.

Solved entries:
{"SMILES_ENTRY": "N#Cc1ccc2c(Nc3cccc(Br)c3)c(N)oc2c1", "TARGET_OR_TEST_SYSTEM": "Human TDO (hTDO)-transfected CHO-K1 cells (Homo sapiens (Human), UniProt P48775)", "OBSERVED": "> 6.30"}
{"SMILES_ENTRY": "Nc1oc2cnccc2c1Nc1ccc(F)cc1Cl", "TARGET_OR_TEST_SYSTEM": "Human TDO (hTDO)-transfected CHO-K1 cells (Homo sapiens (Human), UniProt P48775)", "OBSERVED": "5.70 to 6.30"}
{"SMILES_ENTRY": "Nc1oc2c(-c3cc(F)nc(F)c3)nccc2c1Nc1ccc(F)c(Cl)c1", "TARGET_OR_TEST_SYSTEM": "Human TDO (hTDO)-transfected CHO-K1 cells (Homo sapiens (Human), UniProt P48775)", "OBSERVED": "5.70 to 6.30"}
{"SMILES_ENTRY": "COc1cc2c(Nc3ccc(F)c(Cl)c3)c(N)oc2c(I)n1", "TARGET_OR_TEST_SYSTEM": "Human TDO (hTDO)-transfected CHO-K1 cells (Homo sapiens (Human), UniProt P48775)", "OBSERVED": "< 5.70"}
{"SMILES_ENTRY": "Nc1sc2c(-c3ccncc3)cccc2c1Nc1ccc(F)c(Cl)c1", "TARGET_OR_TEST_SYSTEM": "Human TDO (hTDO)-transfected CHO-K1 cells (Homo sapiens (Human), UniProt P48775)", "OBSERVED": "5.70 to 6.30"}
{"SMILES_ENTRY": "Nc1oc2cnccc2c1Nc1ccc(C(F)(F)F)cc1", "TARGET_OR_TEST_SYSTEM": "Human TDO (hTDO)-transfected CHO-K1 cells (Homo sapiens (Human), UniProt P48775)", "OBSERVED": "5.70 to 6.30"}
{"SMILES_ENTRY": "Nc1oc2c(-c3ccnc(C(=O)NCCN4CCOCC4)c3)nccc2c1Nc1ccc(F)c(Cl)c1", "TARGET_OR_TEST_SYSTEM": "Human TDO (hTDO)-transfected CHO-K1 cells (Homo sapiens (Human), UniProt P48775)", "OBSERVED": "5.70 to 6.30"}
{"SMILES_ENTRY": "CCCCCNC(=O)c1cc(-c2nccc3c(Nc4ccc(F)c(Cl)c4)c(N)oc23)ccn1", "TARGET_OR_TEST_SYSTEM": "Human TDO (hTDO)-transfected CHO-K1 cells (Homo sapiens (Human), UniProt P48775)", "OBSERVED": "< 5.70"}

Read the next record carefully.
Entry under review: Cc1cc(Nc2c(N)oc3cnccc23)ccc1Cl . Reported pIC50?
5.70 to 6.30

* * *

molecular target: IDO1 in HeLa cells (Homo sapiens (Human), UniProt P14902); experiment: HeLa cell based IDO1 assay (IFNγ-induced, KYN in supernatant)
Sequence (P14902 whole entry): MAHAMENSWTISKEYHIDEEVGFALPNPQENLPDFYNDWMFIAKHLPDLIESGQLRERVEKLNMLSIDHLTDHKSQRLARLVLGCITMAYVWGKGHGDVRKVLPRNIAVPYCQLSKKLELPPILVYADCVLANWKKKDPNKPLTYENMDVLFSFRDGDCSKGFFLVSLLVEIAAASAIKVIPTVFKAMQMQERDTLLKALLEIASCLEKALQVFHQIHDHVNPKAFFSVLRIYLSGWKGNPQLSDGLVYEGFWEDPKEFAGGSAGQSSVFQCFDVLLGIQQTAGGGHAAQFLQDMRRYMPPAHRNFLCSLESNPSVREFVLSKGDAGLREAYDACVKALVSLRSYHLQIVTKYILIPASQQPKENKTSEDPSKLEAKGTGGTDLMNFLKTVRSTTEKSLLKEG
pIC50: −log10 of the molar value.
Measured pIC50, listed per entry for reference.

{"COMPOUND": "Nc1oc2c(-c3cccc4ccccc34)nccc2c1Nc1ccc(F)c(Cl)c1", "pIC50": "> 6.70"}
{"COMPOUND": "Nc1oc2c(-c3ccnc(C(=O)NCCN4CCOCC4)c3)nccc2c1Nc1ccc(F)c(Cl)c1", "pIC50": "> 6.70"}
{"COMPOUND": "Cc1ccc(Nc2c(N)oc3cnccc23)cc1", "pIC50": "> 6.70"}
{"COMPOUND": "CCOC(=O)Nc1oc2c(-c3ccnc(C)c3)nccc2c1N(C(=O)OCC)c1ccc(F)c(Cl)c1", "pIC50": "< 6.00"}
{"COMPOUND": "Nc1oc2cnccc2c1Nc1ccc(Cl)c(Cl)c1", "pIC50": "6.00 to 6.70"}

Under IDO1 in HeLa cells (Homo sapiens (Human), UniProt P14902): pIC50 value of Cc1ccc(Nc2c(N)oc3cnccc23)cc1C ?
> 6.70

Under IDO1 in HeLa cells (Homo sapiens (Human), UniProt P14902): pIC50 value of Nc1oc2cnccc2c1Nc1ccc2c(c1)OCO2 ?
> 6.70

Under IDO1 in HeLa cells (Homo sapiens (Human), UniProt P14902): pIC50 value of COc1cc(-c2nccc3c(Nc4ccc(F)c(Cl)c4)c(N)oc23)ccn1 ?
> 6.70

Under IDO1 in HeLa cells (Homo sapiens (Human), UniProt P14902): pIC50 value of Nc1sc2c(-c3ccccc3)cccc2c1Nc1ccc(F)c(Cl)c1 ?
> 6.70

Under IDO1 in HeLa cells (Homo sapiens (Human), UniProt P14902): pIC50 value of Cc1ccc2sc(N)c(Nc3ccc(F)c(F)c3)c2c1 ?
> 6.70

Under IDO1 in HeLa cells (Homo sapiens (Human), UniProt P14902): pIC50 value of Nc1oc2c(-c3ccnc(N4CCOCC4)c3)nccc2c1Nc1ccc(F)c(Cl)c1 ?
> 6.70

Under IDO1 in HeLa cells (Homo sapiens (Human), UniProt P14902): pIC50 value of CCc1cc2c(Nc3ccc(F)c(Cl)c3)c(N)oc2c(-c2ccccc2)n1 ?
6.00 to 6.70
